- target of assay: PDE4 enzyme (U937 lysate or recombinant hPDE4)
- assay name: In vitro inhibition of PDE4 phosphodiesterases ([3H]cAMP SPA enzyme assay, Method A)
- assay conditions: Biological Example 1, Method A
property: pIC50
When answering, recall that pIC50 equals minus log10 of the concentration in mol/L, and write that number alone.

[
  {
    "molecule": "CCCCCCCOc1cc([C@H]2CNC(=O)C(Cc3ccccc3)C2)ccc1OC (stereo partly shown)",
    "pIC50": 5.89
  },
  {
    "molecule": "COc1ccc([C@@H]2C[C@H](Cc3cccc(C)c3)C(=O)N(C(C)=O)C2)cc1OC1CCCC1",
    "pIC50": 5.96
  },
  {
    "molecule": "COc1ccc([C@H]2CNC(=O)C(C(C)c3ccccc3)C2)cc1OC1CCCC1 (stereo partly shown)",
    "pIC50": 5.98
  }
]

# return recorded pIC50 for input COc1ccc([C@H]2CNC(=O)[C@@H](Cc3ccc(OCC(N)=O)cc3)C2)cc1OC1CCCC1 5.87
